- TEST NAME: ATG_ISRE_CIS: Attagene CIS-FACTORIAL HepG2 Assay for human Interferon Regulatory Factor 1 (IRF1) binding to an Interferon-Stimulated Response Element (ISRE) (AID 2282948)
- STUDY CONDITIONS: HepG2 ISRE cis-reporter (Attagene), mRNA transcription readout; actives raise or lower the signal
Activity calls are given as the source filed them. Rule for the calls: active = hit-call score of the fitted dose curve at least 0.9, where 1 is the maximum; inactive = score below 0.9.
Parameter call: string, one of active, inactive

Sample answers from the record:
C[Si](C)O[Si](C)C
inactive
CCOCOCC
inactive
CC(C)OC=O
inactive
CC(=O)c1ccccc1N
inactive
CCCCCCCC/C=C\CCCCCCCC(=O)N(C)CC(=O)O
inactive

**Q:** Please let me know the test result on file for O=C=NCc1cccc(CN=C=O)c1 .
**A:** inactive

**Q:** Please let me know the test result on file for CC1=CCC2C(=O)OC(=O)C2C1 (centres undefined) .
**A:** inactive

**Q:** Please let me know the test result on file for N#Cc1ccccc1O .
**A:** inactive

**Q:** Please let me know the test result on file for C#CC(O)CCC (centres undefined) .
**A:** inactive

**Q:** Please let me know the test result on file for OCC(O)CC(F)(F)C(F)(F)C(F)(F)C(F)(F)C(F)(F)C(F)(F)C(F)(F)C(F)(F)F (centres undefined) .
**A:** inactive
